# experimental.details: Hepatic intrinsic clearance following incubation in human liver microsomes
# Type: in vitro ADME
# condition.notes: 0.5 μM test compound, NADPH, 0-30 min, scaled to g liver
readout.label: Human in vitro Clint

>>> observed_value("Cc1cc(O)ccc1[C@H]1[C@@H]2CCC(=O)N2CCN1C(=O)N(C)[C@H](C)c1cc(C(F)(F)F)cc(C(F)(F)F)c1 [Compound 27]")
">200 mL/min/g"
>>> observed_value("Cc1ccc(C)c([C@H]2[C@@H]3CC(CCO)(CCO)C(=O)N3CCN2C(=O)N(C)[C@H](C)c2cc(C(C)C)cc(C(F)(F)F)c2)c1 [Compound 38]")
"157 mL/min/g"
>>> observed_value("Cc1cccc([C@H]2[C@@H]3CCC(=O)N3CCN2C(=O)N(C)[C@H](C)c2cc(C(C)C)cc(C(F)(F)F)c2)c1C [Compound 42]")
">200 mL/min/g"
>>> observed_value("CCc1cc([C@@H](C)N(C)C(=O)N2CCN3C(=O)CC[C@H]3[C@@H]2c2ccsc2C)cc(C(F)(F)F)c1 [Compound 56]")
">200 mL/min/g"
>>> observed_value("Cc1cc([C@@H](C)N(C)C(=O)N2CCN3C(=O)CCC3C2c2ccc(C)cc2C)cc(C(F)(F)F)c1 (single isomer, unassigned) [Compound 5]")
">200 mL/min/g"

Now, please, on to the next molecule.
If you can, please state the reported Human in vitro Clint value of CCc1cc([C@@H](C)N(C)C(=O)N2CCN3C(=O)C(CCO)(CCO)C[C@H]3[C@@H]2c2ccc(F)cc2C)cc(C(F)(F)F)c1 [Compound 24] . >200 mL/min/g

----------
Please respond with reported pIC50 for every item in the list.
# measurement.target: NK1 Receptor (Homo sapiens)
# Construct: Measurement of NK1 Receptor Mediated Intracellular [Ca^2+]; Mobilization in U251 MG Cells Using FLIPR; endogenous in cells
# Sequence (P25103 whole entry): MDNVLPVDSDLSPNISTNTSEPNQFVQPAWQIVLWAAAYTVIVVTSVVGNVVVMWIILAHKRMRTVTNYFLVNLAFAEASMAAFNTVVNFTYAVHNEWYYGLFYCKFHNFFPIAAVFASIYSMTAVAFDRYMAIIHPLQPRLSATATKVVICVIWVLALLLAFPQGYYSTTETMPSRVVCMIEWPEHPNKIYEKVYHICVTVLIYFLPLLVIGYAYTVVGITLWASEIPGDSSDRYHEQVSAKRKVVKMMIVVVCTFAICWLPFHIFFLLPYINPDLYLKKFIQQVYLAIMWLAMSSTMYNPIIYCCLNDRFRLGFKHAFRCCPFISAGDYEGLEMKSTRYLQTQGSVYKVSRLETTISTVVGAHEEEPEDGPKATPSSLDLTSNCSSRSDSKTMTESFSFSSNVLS
# experimental.details: NK1 receptor mediated intracellular [Ca2+] mobilization in U251 MG cells using FLIPR
# condition.notes: antagonism of Substance P (EC80), Fluo-4, read-out: NK1R mediated intracellular [Ca^2+] mobilization IC 50
Give bare numbers, as −log10 of the molar value.

Some entries whose results are on file:
>>> observed_value("Cc1cc([C@@H](C)N(C)C(=O)N2CCN3C(=O)CCC3C2c2ccc(C)cc2C)cc(C(F)(F)F)c1 (single isomer, unassigned) [Compound 4]")
8.03
>>> observed_value("COc1ccc(C2C3CCC(=O)N3CCN2C(=O)N(C)[C@H](C)c2cc(C(F)(F)F)cc(C(F)(F)F)c2)c(C)c1 (single isomer, unassigned) [Compound 19]")
7.41
>>> observed_value("Cc1ccc(C2C3CCC(=O)N3CCN2C(=O)N(C)[C@H](C)c2cc(C(F)(F)F)cc(C(F)(F)F)c2)c(C)c1 (single isomer, unassigned) [Compound 1]")
9.81
>>> observed_value("CCc1cc([C@@H](C)N(C)C(=O)N2CCN3C(=O)C(CCO)(CCO)CC3C2c2ccc(OC)cc2C)cc(C(F)(F)F)c1 (stereo partly drawn)")
9.61
>>> observed_value("Cc1cc([C@@H](C)N(C)C(=O)N2CCN3C(=O)C(CCO)(CCO)CC3C2c2ccc(F)cc2C)cc(C(F)(F)F)c1 (single isomer, unassigned) [Compound 12]")
9.21
>>> observed_value("Cc1cccnc1[C@H]1[C@@H]2CCC(=O)N2CCN1C(=O)N(C)[C@H](C)c1cc(C(F)(F)F)cc(C(F)(F)F)c1")
8.53
>>> observed_value("Cc1ccc(C2C3CC(CCO)(CCO)C(=O)N3CCN2C(=O)N(C)[C@H](C)c2cc(C(F)(F)F)cc(C(F)(F)F)c2)c(C)c1 (single isomer, unassigned) [Compound 7]")
10.10
>>> observed_value("CCc1cc([C@@H](C)N(C)C(=O)N2CCN3C(=O)CC[C@H]3[C@@H]2c2ccc(O)cc2C)cc(C(F)(F)F)c1")
9.96
>>> observed_value("CCc1cc([C@@H](C)N(C)C(=O)N2CCN3C(=O)CC[C@H]3[C@@H]2c2scc(C)c2C)cc(C(F)(F)F)c1")
9.59
>>> observed_value("CCc1cc([C@@H](C)N(C)C(=O)N2CCN3C(=O)CC[C@H]3[C@@H]2c2cccc(C)c2C)cc(C(F)(F)F)c1")
9.95

For every item below, please supply its pIC50.
1. Cc1nn(C)cc1[C@H]1[C@@H]2CCC(=O)N2CCN1C(=O)N(C)[C@H](C)c1cc(C(F)(F)F)cc(C(F)(F)F)c1
2. Cc1cc(F)ccc1[C@H]1[C@@H]2CC(CCO)(CCO)C(=O)N2CCN1C(=O)N(C)[C@H](C)c1cc(C(C)C)cc(C(F)(F)F)c1

1: 8.91; 2: 10.10
